details: human gut metagenome, 24 h, 2 µM; further: call rule not given here
Reported Metric: Bacterial Biotransformation

CCCCCNC(=N)N/N=C/c1c[nH]c2ccc(OC)cc12.O=C(O)/C=C\C(=O)O [TEGASEROD MALEATE]    Compound NOT metabolized
CN(C)C(=O)Oc1cccc([N+](C)(C)C)c1.[Br-] [NEOSTIGMINE BROMIDE]    Compound NOT metabolized

###

assay: The drug is tested on WLS-220 corresponding to human gut metagenome with ENA study accession number: PRJEB37062 and ENA sample accession number: ERS12561769 for biotransformation under anaerobic condition. The drug concentrations were measured over 9 timepoints collected between 0 and 24 hours of incubation by liquid-chromatography-coupled mass spectrometry (LC–MS); conditions: 2 µM
Reported Metric: Bacterial Biotransformation

Observe how each entry below is paired with its result.
CC(=O)OCC(=O)[C@@]1(OC(C)=O)[C@@H](C)C[C@H]2[C@@H]3C[C@H](F)C4=CC(=O)C=C[C@]4(C)[C@@]3(F)[C@@H](O)C[C@@]21C [DIFLORASONE DIACETATE]    Compound metabolized
N#Cc1ccc2c(c1)N(CCCN1CCC(O)CC1)c1ccccc1S2 [PERICIAZINE]    Compound metabolized
Br.COc1ccc2c(c1)[C@]13CCCC[C@@H]1[C@H](C2)N(C)CC3.O [DEXTROMETHORPHAN HYDROBROMIDE]    Compound metabolized
CC(NC(C)(C)C)C(=O)c1cccc(Cl)c1 (stereo not given) [BUPROPION]    Compound NOT metabolized
CC(CCc1ccccc1)NCC(O)c1ccc(O)c(C(N)=O)c1 (stereo not given) [LABETALOL]    Compound NOT metabolized
CCc1oc2ccccc2c1C(=O)c1cc(Br)c(O)c(Br)c1 [BENZBROMARONE]    Compound metabolized
CCN1CCCC1CNC(=O)c1cc(S(=O)(=O)CC)c(N)cc1OC (stereo not given) [AMISULPRIDE]    Compound NOT metabolized
COc1ccc2cc([C@H](C)C(=O)O)ccc2c1 [NAPROXEN]    Compound metabolized
CCOC(=O)[C@H](CCc1ccccc1)N[C@@H](C)C(=O)N1CCC[C@H]1C(=O)O.O=C(O)/C=C\C(=O)O [ENALAPRIL MALEATE]    Compound NOT metabolized
C=C[C@H]1CN2CC[C@H]1C[C@H]2[C@H](O)c1ccnc2ccc(OC)cc12.C=C[C@H]1CN2CC[C@H]1C[C@H]2[C@H](O)c1ccnc2ccc(OC)cc12.O.O.O=S(=O)(O)O [QUININE SULFATE]    Compound metabolized

-- ask Which measured Bacterial Biotransformation value corresponds to CCN(CC)C(=O)C1(c2ccccc2)CC1CN (stereo not given) ?
-- reply Compound NOT metabolized

-- ask Same read-out for O=C1N=C([O-])NC1(c1ccccc1)c1ccccc1.[Na+] [PHENYTOIN SODIUM] ?
-- reply Compound metabolized

-- ask Same read-out for CC(C)(C)NC(=O)[C@H]1CC[C@H]2[C@@H]3CC[C@H]4NC(=O)C=C[C@]4(C)[C@H]3CC[C@]12C [FINASTERIDE] ?
-- reply Compound metabolized

-- ask Same read-out for CC[C@@]1(O)C(=O)OCc2c1cc1n(c2=O)Cc2cc3c(CN(C)C)c(O)ccc3nc2-1 [TOPOTECAN] ?
-- reply Compound NOT metabolized

-- ask Same read-out for CCCCCNC(=N)N/N=C/c1c[nH]c2ccc(OC)cc12.O=C(O)/C=C\C(=O)O [TEGASEROD MALEATE] ?
-- reply Compound NOT metabolized

-- ask Same read-out for Cc1nc(Nc2ncc(C(=O)Nc3c(C)cccc3Cl)s2)cc(N2CCN(CCO)CC2)n1 [DASATINIB ANHYDROUS] ?
-- reply Compound metabolized

-- ask Same read-out for CCN(C(C)=O)c1cccc(-c2ccnc3c(C#N)cnn23)c1 [ZALEPLON] ?
-- reply Compound metabolized

-- ask Same read-out for C[N+]12CCC(CC1)C(OC(=O)C(O)(c1ccccc1)c1ccccc1)C2.[Br-] (stereo not given) [CLIDINIUM BROMIDE] ?
-- reply Compound NOT metabolized

-- ask Same read-out for COc1ccc(C(CN(C)C)C2(O)CCCCC2)cc1 (stereo not given) [VENLAFAXINE] ?
-- reply Compound NOT metabolized
